Reference source for all entries: ChEMBL document CHEMBL1154983

target: 5-hydroxytryptamine receptor 2A (Homo sapiens); test: Displacement of [3H]ketanserin from human recombinant 5-HT2A receptor expressed in CHO-K1 cells after 60 mins
Sequence (P28223 whole entry): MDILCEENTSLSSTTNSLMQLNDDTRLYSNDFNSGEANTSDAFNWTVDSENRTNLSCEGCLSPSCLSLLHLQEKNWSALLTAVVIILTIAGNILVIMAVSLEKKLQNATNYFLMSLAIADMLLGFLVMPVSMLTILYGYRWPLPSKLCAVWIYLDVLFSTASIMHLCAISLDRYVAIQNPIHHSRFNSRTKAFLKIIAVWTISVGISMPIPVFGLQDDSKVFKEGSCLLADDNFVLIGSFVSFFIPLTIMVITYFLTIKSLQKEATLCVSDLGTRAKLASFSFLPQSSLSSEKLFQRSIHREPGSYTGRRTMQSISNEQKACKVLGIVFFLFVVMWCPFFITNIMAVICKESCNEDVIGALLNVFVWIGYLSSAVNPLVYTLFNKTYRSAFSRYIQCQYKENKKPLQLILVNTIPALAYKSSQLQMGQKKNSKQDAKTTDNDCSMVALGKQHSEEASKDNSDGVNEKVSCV
Measured parameter: pIC50
Lab note — pIC50 values are minus log10 of concentrations in M.

Known results for compounds:
[[record]]
chemical_smiles = "CCCn1c(-c2ccccc2)cc(C(=O)NCCCN2CCN(c3cccc(C)c3C)CC2)c1C"
reading = 6.89

[[record]]
chemical_smiles = "Cc1c(C(=O)NCCN2CCN(c3cccc(Cl)c3Cl)CC2)cc(-c2ccccc2)n1C"
reading = 6.76

[[record]]
chemical_smiles = "Cc1c(C(=O)NCCCN2CCN(c3cccc(Cl)c3)CC2)cc(-c2ccccc2)n1N1CCCCC1"
reading = 6.36

[[record]]
chemical_smiles = "Cc1cccc(N2CCN(CCCNC(=O)c3cc(-c4ccccc4)n(N4CCCCC4)c3C)CC2)c1C"
reading = 6.88

[[record]]
chemical_smiles = "Cc1c(C(=O)NCCCN2CCN(c3cccc(Cl)c3)CC2)cc(-c2ccccc2)n1Cc1ccccc1"
reading = 6.75


INPUT: Value wanted: pIC50 (5-hydroxytryptamine receptor 2A (Homo sapiens)) of entry Cc1c(C(=O)NCCCN2CCN(c3cccc(Cl)c3)CC2)cc(-c2ccccc2)n1CC(C)C
OUTPUT: 6.48
